This listing pairs compounds with measured %Inh.
System: KIT;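 also: KINOMEscan kinase panel screen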
Conditions: concentration: 1 μM, replicates: in singlicate; n = 1
Answer with a number only, understood to be in %.

These solved cases illustrate the format of a correct answer.
Which measured %Inh value corresponds to "C[C@@H]1CCCCN1c1cc(-c2ccc3c(N)n[nH]c3c2)nc(N)n1" ? 4

What value of %Inh has been reported for the following compound? "Cc1cc(-c2ccc3c(c2)CC[C@@H](N[C@@H](C)c2ccccc2)C3)cnc1N.Cl" 60

Would you mind telling me what %Inh value was observed for "COc1ccc(Nc2nccc(-c3cccc(NC(=O)c4cc5cc(F)ccc5[nH]4)c3)n2)cc1" ? 57

Which %Inh value belongs to "COC(=O)c1c(-c2ccccc2)c2cc(OC)ccc2c(=O)n1Cc1ccccc1" ? 93.3

Further cases:
Would you mind telling me what %Inh value was observed for "Cn1ccc2ncnc(Oc3ccc(Nc4nc5ccccc5[nH]4)cc3)c21" ? 77

GET /values?readout=%Inh&item= "Cc1ccc(C(=O)Nc2ccc(Nc3ccnc4cc(-c5ccccn5)ccc34)cc2O)cc1.Cl" 89

Give the measured %Inh of "COc1cc2ncnc(Nc3ccc4nc(-c5ccccc5)[nH]c4c3)c2cc1OC.Cl" . 72

If you can, please state the reported %Inh value of COc1cc2ncn(-c3cc(OCC4CCCO4)c(C(N)=O)s3)c2cc1OC (centres unmarked) . 16

// query %Inh value for entry "COC(=O)c1c(-c2ccccc2)c2cc(C(=O)O)ccc2c(=O)n1Cc1ccccc1" 93.1
